Entry source: ChEMBL document CHEMBL1201862

Entries annotated with measured GI50
test system: NCI-H23; assay: NCI tumour cell line growth inhibition, 48 h
Calls of active or inactive are those of the source. Cut-off read from the data, not from the text of the source: active = GI50 up to about 1.1 µM and inactive = higher.

Answered cases to consult:
compound	GI50
N=C(N)NC(=N)Nc1ccccc1.Sc1nc2ccccc2s1	> 100 µM (inactive)
CN1C/C(=C\c2cccs2)C2=NC(=S)NC(c3cccs3)C2C1 (stereo not drawn)	77.6 µM (inactive)
Cc1nc(=O)[nH]c2c1C(=O)N(C(C)C)C(NC(C)C)S2 (stereo not drawn)	> 100 µM (inactive)
COCC1OC(S(=O)(=O)c2ccccc2)C(O)C(OC)C1OC (stereo not drawn)	> 100 µM (inactive)

Provide measured GI50 value, entry: O=C1Nc2ccc(S(=O)(=O)NCCO)cc2/C1=C1/Nc2ccccc2C1=O
28.4 µM (inactive)

Provide measured GI50 value, entry: O=c1[nH]c(=O)n(C2OC(CO)C(O)C2O)cc1/N=N/NCc1ccccc1 (stereo not drawn)
> 100 µM (inactive)

Provide measured GI50 value, entry: CCC1C2Cc3ccc(O)cc3C1(CC)CCN2C (stereo not drawn)
> 100 µM (inactive)

Provide measured GI50 value, entry: O=C(CO)C1CC2C=CC1C2 (stereo not drawn)
> 100 µM (inactive)

Provide measured GI50 value, entry: Cn1cnc([N+](=O)[O-])c1Sc1nccc(O)n1
> 100 µM (inactive)

Provide measured GI50 value, entry: COc1ccc(C2=NNC(c3cc4cc(Br)ccc4nc3Cl)C2)cc1 (stereo not drawn)
15.4 µM (inactive)

Provide measured GI50 value, entry: N#Cc1cc2c(cc1Cl)Sc1nnc(Nc3ccccc3)n1S2(=O)=O
1.62 µM (inactive)

Provide measured GI50 value, entry: O=C1C2CCN(CC2)C1CN1CCOCC1 (stereo not drawn)
9.95 µM (inactive)

Provide measured GI50 value, entry: Cc1ccc(-c2cc(-c3c(C)nn(C)c(=O)c3N)n[nH]2)cc1
> 100 µM (inactive)

Provide measured GI50 value, entry: CN(C)CCC(C(=O)C(C)(C)C)c1ccccn1 (stereo not drawn)
> 100 µM (inactive)

Provide measured GI50 value, entry: CC(=O)c1c2c(cc3c1CC1(C3)Cc3cc4c(c(C(C)=O)c3C1)CCCC4)CCCC2
> 100 µM (inactive)

----------
system: M14; assay: NCI tumour cell line growth inhibition, 48 h
Active and inactive are the calls of the source. Cut-off read from the data, not from the text of the source: active = GI50 up to about 1.1 µM and inactive = higher.
Entries annotated with measured GI50

Answered cases to consult:
compound	GI50
O=C1Nc2ccc([N+](=O)[O-])cc2/C1=N/NC(=S)Nc1ccc([N+](=O)[O-])cc1	19.6 µM (inactive)
COc1cc(C2c3cc(O)c(OC)cc3C3OCC2C3CO)ccc1O (stereo unspecified)	> 100 µM (inactive)
CC(C)c1ccc(O)c(=O)cc1	7.64 µM (inactive)
c1ccc(COc2ccc(CC3SCCCS3)cc2)cc1	> 100 µM (inactive)
O=C1/C(=N/CCc2cc(Br)c(O)c(Br)c2)C=C(O)c2cccnc21	1.31 µM (inactive)
CC1=C(C(=O)N[C@@H](Cc2ccccc2)C(=O)O)N2C(=O)[C@@H](NC(=O)[C@@H](N)CC(C)C)[C@H]2SC1	> 100 µM (inactive)

Provide measured GI50 value, entry: Cc1ccc([N+](=O)[O-])cc1S(=O)(=O)Nc1ccc(C2=NN(C(=O)c3ccccc3)C(c3cccs3)C2)cc1 (stereo unspecified)
24.1 µM (inactive)

Provide measured GI50 value, entry: Oc1ccc(/N=C/c2ccc(/C=N/c3ccc(O)cc3)cc2)cc1
17.1 µM (inactive)

Provide measured GI50 value, entry: CC(=O)Oc1ccc(C)c2c1[C@H]1CC[C@]3(C)[C@@H](OC(C)=O)CC[C@H]3[C@@H]1CC2
17.5 µM (inactive)

Provide measured GI50 value, entry: O=C1CC(c2cccc(Br)c2)n2cccc21 (stereo unspecified)
80.7 µM (inactive)

Provide measured GI50 value, entry: O=C1OCC/C1=C/c1ccc(/N=N/c2c(O)ccc3ccccc23)cc1
27.5 µM (inactive)

Provide measured GI50 value, entry: O=C1OC(CC(=O)c2ccc(Cl)c(Cl)c2)C(Cl)=C1Cl (stereo unspecified)
> 100 µM (inactive)

Provide measured GI50 value, entry: O=C(N/C(=C\c1ccc(/C=C(\NC(=O)c2ccccc2)c2nc3cc(Cl)ccc3[nH]2)cc1)c1nc2cc(Cl)ccc2[nH]1)c1ccccc1
26.9 µM (inactive)

Provide measured GI50 value, entry: Cc1cccc(C)c1NC(=O)CCCC(=O)C(C#N)c1ccccc1 (stereo unspecified)
> 100 µM (inactive)

Provide measured GI50 value, entry: Cc1ccc(-c2nc3c(C(=O)NCCN(C)C)cccc3[nH]2)cc1
15.8 µM (inactive)

Provide measured GI50 value, entry: CCN(CC)C(=S)SS(C)(=O)=O
18.2 µM (inactive)
